Entries and their pIC50
study target: 5-HT2A (Homo sapiens)
experiment: Serotonin 5-HT2A in vitro radioligand binding competition assay
Parameters: purchased Epics Therapeutics S.A. (Belgium) FAST-0505B; host or cells: membrane extracts
experimental parameters: radiotracer [3H]-DOI, membrane extracts
pIC50: −log10 of the molar value.

See these solved cases before continuing.
In [3]: df
Out[3]:
                                   compound           study_target        result
0  C[C@@H](N)Cn1ccc2nc(OCc3ccccc3)ccc21 [Compound 2]  5-HT2A (Homo sapiens)        < 5.00
1  CN[C@H](C)Cn1ccc2cc(OCc3ccccc3)ccc21 [Compound 4]  5-HT2A (Homo sapiens)  5.00 to 6.00
2  C[C@H](Cn1ccc2cc(OCc3ccccc3)ccc21)N1CCCC1 [Compound 12]  5-HT2A (Homo sapiens)  5.00 to 6.00
3  C[C@@H](N)Cn1ccc2cc(OCc3cccc(F)c3)ccc21 [Compound 6]  5-HT2A (Homo sapiens)  6.00 to 7.00
4  C[C@H](Cn1ccc2cc(OCc3ccccc3F)ccc21)N(C)C [Compound 10]  5-HT2A (Homo sapiens)  7.00 to 8.00

Sample C[C@@H](N)Cn1ccc2cc(OCc3ccc(F)cc3)ccc21 [Compound 5] — what was its pIC50?
6.00 to 7.00

Same read-out for C[C@H](Cn1ccc2nc(OCc3ccccc3)ccc21)N(C)C [Compound 1] ?
6.00 to 7.00

---

study target: 5-HT2A (Homo sapiens)
experiment: Serotonin 5-HT2A in vitro cellular IPOne agonism assay
experimental parameters: CHO-K1 cells, IPOne HTRF, agonist mode
measurement type: EC50

See these solved cases before continuing.
>>> print(df.to_string())
                            compound_string           study_target   result
0   C[C@H](Cn1ccc2nc(OCc3ccccc3)ccc21)N(C)C  5-HT2A (Homo sapiens)  > 10 µM
1      C[C@@H](N)Cn1ccc2nc(OCc3ccccc3)ccc21  5-HT2A (Homo sapiens)  > 10 µM
2  C[C@H](Cn1ccc2cc(OCc3ccccc3)ccc21)N1CCCC1  5-HT2A (Homo sapiens)  > 10 µM
3  C[C@H](Cn1ccc2cc(OCc3ccc(F)cc3)ccc21)N(C)C  5-HT2A (Homo sapiens)  > 10 µM
4   C[C@H](Cn1ccc2cc(OCc3ccccc3)ccc21)N(C)C  5-HT2A (Homo sapiens)  > 10 µM

Sample C[C@@H](N)Cn1ccc2cc(OCc3ccccc3F)ccc21 — what was its EC50?
1 to 10 µM

Same read-out for C[C@H](Cn1ccc2cc(OCc3ccccc3F)ccc21)N(C)C ?
> 10 µM

Same read-out for C[C@@H](N)Cn1ccc2cc(OCc3ccc(F)cc3)ccc21 ?
1 to 10 µM

---

study target: 5-HT2A (Homo sapiens, UniProt P28223)
Sequence (P28223 whole entry): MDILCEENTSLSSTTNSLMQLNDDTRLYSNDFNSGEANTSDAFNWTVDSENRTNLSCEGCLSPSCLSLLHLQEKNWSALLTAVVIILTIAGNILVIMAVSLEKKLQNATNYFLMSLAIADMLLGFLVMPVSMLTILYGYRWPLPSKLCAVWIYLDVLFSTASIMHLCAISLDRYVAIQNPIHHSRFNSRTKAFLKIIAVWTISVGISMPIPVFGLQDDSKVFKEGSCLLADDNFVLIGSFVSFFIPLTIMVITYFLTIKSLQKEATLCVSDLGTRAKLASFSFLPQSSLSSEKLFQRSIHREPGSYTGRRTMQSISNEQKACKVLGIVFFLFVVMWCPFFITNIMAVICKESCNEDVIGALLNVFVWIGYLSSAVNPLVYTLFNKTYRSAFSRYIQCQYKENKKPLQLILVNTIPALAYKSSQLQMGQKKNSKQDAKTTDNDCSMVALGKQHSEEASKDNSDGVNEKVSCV
experiment: Serotonin 5-HT2A in vitro cellular IPOne antagonism assay
Assay type: cell-based
Parameters: host or cells: CHO-K1
experimental parameters: CHO-K1 cells, IPOne HTRF, reference agonist a-Me-5HT; read-out: 5-HT2A IPOne Antagonist Activity
Protocol: Serotonin 5-HT2A In Vitro Cellular IPOne Antagonism Assay. The 5-HT2A TPOne HTRF assay was performed at Epics Therapeutics S.A. (Belgium, FAST-0505I) in antagonism mode using conventional methods. […] For antagonist testing, a reference agonist a-Me-5HT was added and fluorescence signal monitored for several minutes, followed by addition of 20 μl of assay buffer plus 20 μl of test compound or reference antagonist ketanserin, in each well. […]
Entries and their IC50

>>> print(df.to_string())
                            compound_string                           study_target  measurement_type          result
0  CCN(CC)[C@H](C)Cn1ccc2cc(OCc3ccccc3)ccc21  5-HT2A (Homo sapiens, UniProt P28223)              IC50  101 to 1000 nM

Sample C[C@H](Cn1ccc2cc(OCc3ccccc3)ccc21)N1CCCC1 — what was its IC50?
101 to 1000 nM

Same read-out for C[C@H](Cn1ccc2cc(OCc3ccccc3F)ccc21)N(C)C ?
101 to 1000 nM

Same read-out for C[C@@H](N)Cn1ccc2cc(OCc3ccc(F)cc3)ccc21 ?
101 to 1000 nM

Same read-out for C[C@@H](N)Cn1ccc2cc(OCc3cccc(F)c3)ccc21 ?
101 to 1000 nM

Same read-out for C[C@H](Cn1ccc2cc(OCc3cccc(F)c3)ccc21)N(C)C ?
10 to 100 nM

Same read-out for C[C@H](Cn1ccc2nc(OCc3ccccc3)ccc21)N(C)C ?
101 to 1000 nM

Same read-out for C[C@H](Cn1ccc2cc(OCc3ccc(F)cc3)ccc21)N(C)C ?
< 10 nM

Same read-out for CN[C@H](C)Cn1ccc2cc(OCc3ccccc3)ccc21 ?
101 to 1000 nM

Same read-out for C[C@H](Cn1ccc2cc(OCc3ccccc3)ccc21)N(C)C ?
10 to 100 nM

meta.source: patent US20250051276A1
